# key: entry, value: inhibition at 25 µg/mL
Test system: Enterococcus faecalis
Test summary: Antimicrobial screening, resazurine test
Assay type: cell-based
Conditions: Enterococcus faecalis, E. faecalis, c = 25 µg·mL-1; read-out: Inhibition of the microorganism
Your answer is read as %, so omit the unit and give the number.

Compound	inhibition at 25 µg/mL (%)
CC1(C)CC[C@]2(C(=O)O)CC[C@]3(C)C(=CC[C@@H]4[C@@]5(C)CC[C@H](OCc6cn(CCOCCOCCOCCNC(=O)[C@]78CCC(C)(C)CC7C7=CC[C@@H]9[C@@]%10(C)CC[C@H](O)C(C)(C)[C@@H]%10CC[C@@]9(C)[C@]7(C)CC8)nn6)C(C)(C)[C@@H]5CC[C@]43C)C2C1 (stereo partly shown)	17

In the following, a different compound is considered.
stdin: For the compound CC1(C)C=C2C3CC[C@@H]4[C@@]5(C)CC[C@H](OCc6cn(CCOCCOCCOCCNC(=O)[C@]78CCC(C)(C)C=C7C7CC[C@@H]9[C@@]%10(C)CC[C@H](O)C(C)(C)[C@@H]%10CC[C@@]9(C)[C@]7(C)CC8)nn6)C(C)(C)[C@@H]5CC[C@@]4(C)[C@]3(C)CC[C@@]2(C(=O)O)CC1 (stereo partly shown) , what inhibition at 25 µg/mL is on record?
stdout: 20
